# studySystem: Voltage-gated N-type calcium channel alpha-1B subunit/Amyloid beta A4 precursor protein-binding family A member 1 (Homo sapiens, UniProt Q00975+Q02410)
# Sequence (Q00975 whole entry): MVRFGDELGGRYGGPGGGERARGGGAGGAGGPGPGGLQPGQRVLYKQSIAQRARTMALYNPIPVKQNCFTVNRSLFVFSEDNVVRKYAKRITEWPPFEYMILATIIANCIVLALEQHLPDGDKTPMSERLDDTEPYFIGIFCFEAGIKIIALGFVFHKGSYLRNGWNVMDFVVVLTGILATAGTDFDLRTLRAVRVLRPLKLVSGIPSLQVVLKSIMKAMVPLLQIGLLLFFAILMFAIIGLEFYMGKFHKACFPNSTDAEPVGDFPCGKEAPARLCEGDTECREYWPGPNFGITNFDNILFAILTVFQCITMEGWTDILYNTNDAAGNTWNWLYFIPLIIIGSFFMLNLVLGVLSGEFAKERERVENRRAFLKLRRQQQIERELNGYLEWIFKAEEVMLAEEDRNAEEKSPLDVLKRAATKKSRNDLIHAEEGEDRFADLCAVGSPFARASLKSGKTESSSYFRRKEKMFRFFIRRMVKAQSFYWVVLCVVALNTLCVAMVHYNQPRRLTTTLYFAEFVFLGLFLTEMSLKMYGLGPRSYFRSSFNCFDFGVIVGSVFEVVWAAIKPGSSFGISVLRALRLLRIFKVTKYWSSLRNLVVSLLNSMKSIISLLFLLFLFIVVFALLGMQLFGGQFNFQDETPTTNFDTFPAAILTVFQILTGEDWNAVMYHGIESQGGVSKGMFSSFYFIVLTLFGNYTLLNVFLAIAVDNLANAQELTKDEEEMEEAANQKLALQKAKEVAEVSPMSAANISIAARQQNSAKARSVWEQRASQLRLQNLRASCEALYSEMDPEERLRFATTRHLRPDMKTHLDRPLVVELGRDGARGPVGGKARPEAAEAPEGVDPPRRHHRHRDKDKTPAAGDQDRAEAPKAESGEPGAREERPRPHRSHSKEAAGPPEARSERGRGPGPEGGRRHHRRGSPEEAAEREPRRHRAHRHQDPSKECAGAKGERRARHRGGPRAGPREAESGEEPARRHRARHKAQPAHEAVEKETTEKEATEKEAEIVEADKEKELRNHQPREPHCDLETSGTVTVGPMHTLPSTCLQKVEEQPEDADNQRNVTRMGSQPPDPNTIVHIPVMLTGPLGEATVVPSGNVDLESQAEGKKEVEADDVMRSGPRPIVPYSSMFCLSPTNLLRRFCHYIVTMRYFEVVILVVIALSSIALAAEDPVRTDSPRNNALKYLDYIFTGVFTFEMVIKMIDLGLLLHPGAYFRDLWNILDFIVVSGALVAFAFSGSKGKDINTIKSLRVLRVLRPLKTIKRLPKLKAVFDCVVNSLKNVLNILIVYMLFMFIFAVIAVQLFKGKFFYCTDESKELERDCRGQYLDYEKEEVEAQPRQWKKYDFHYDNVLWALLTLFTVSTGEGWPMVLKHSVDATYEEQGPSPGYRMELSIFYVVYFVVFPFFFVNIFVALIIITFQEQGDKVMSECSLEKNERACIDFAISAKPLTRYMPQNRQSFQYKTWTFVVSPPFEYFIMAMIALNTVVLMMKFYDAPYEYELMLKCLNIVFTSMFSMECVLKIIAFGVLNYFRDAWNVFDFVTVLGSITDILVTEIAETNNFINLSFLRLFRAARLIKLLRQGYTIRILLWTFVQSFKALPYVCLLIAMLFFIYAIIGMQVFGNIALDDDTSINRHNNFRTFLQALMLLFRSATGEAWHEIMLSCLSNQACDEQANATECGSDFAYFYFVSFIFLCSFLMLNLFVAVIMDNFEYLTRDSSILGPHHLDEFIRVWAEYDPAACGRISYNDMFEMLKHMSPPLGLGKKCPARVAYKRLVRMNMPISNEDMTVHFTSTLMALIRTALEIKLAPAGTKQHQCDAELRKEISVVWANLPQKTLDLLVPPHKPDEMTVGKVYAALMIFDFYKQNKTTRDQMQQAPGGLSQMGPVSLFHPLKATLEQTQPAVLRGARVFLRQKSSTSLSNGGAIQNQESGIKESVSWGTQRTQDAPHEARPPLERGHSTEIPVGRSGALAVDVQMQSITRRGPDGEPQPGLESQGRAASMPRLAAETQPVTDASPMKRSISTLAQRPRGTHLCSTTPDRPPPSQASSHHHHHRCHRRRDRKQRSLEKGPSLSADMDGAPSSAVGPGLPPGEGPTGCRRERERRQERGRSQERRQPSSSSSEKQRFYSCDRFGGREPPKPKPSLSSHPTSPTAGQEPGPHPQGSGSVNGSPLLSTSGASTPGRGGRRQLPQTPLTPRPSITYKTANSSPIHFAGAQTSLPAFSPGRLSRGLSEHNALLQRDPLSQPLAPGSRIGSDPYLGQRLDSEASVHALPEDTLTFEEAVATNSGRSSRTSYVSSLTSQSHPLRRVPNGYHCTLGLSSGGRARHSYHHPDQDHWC
# Sequence (Q02410 whole entry): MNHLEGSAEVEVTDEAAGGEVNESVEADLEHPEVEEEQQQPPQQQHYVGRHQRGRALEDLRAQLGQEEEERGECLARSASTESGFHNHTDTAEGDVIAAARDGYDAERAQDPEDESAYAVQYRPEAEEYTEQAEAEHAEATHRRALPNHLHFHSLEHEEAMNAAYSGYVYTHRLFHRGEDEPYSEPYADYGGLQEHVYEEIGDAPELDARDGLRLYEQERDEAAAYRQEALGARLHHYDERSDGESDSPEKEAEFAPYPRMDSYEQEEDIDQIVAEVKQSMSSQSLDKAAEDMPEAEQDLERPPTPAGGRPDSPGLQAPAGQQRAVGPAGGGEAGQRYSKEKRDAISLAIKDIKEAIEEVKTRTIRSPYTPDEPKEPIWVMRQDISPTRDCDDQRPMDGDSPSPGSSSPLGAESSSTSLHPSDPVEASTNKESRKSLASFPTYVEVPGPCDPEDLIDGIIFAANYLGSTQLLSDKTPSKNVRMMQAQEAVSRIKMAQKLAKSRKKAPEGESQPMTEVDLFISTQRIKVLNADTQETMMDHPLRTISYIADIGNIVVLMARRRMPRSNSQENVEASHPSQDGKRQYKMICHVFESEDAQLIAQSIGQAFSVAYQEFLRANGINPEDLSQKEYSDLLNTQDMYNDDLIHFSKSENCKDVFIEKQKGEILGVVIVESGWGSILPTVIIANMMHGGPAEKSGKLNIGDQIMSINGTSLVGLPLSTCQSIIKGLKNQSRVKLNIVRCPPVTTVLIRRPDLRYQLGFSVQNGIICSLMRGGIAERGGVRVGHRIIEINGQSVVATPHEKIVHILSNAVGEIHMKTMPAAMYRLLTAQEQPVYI
# Type: protein assay
The source made the active and inactive calls.
experimentalEndpoint: IC50

CC(=O)Nc1ccc(C2=NN=C(Nc3ccc(S(=O)(=O)N4CCOCC4)cc3)SC2)cc1; > 50 µM (inactive)
N#C/C(=C/c1ccc(N2CCCCCC2)o1)c1ccc(Cl)cc1; > 50 µM (inactive)
CCCc1ccc(/C=C2\C(=O)c3ccccc3C(O)=C2C(=O)OCC)cc1; 5.12 µM (active)
CCN1C(=O)c2cccc3cccc1c23; > 50 µM (inactive)
O=C(CN1C(=O)/C(=C2\SC(=S)N(CCS(=O)(=O)O)C2=O)c2ccccc21)Nc1cccc(Br)c1; > 50 µM (inactive)

* * *

# studySystem: Voltage-gated N-type calcium channel alpha-1B subunit/Amyloid beta A4 precursor protein-binding family A member 1 (Homo sapiens, UniProt Q00975+Q02410)
# Type: protein assay
The source made the active and inactive calls.
experimentalEndpoint: IC50

N#C/C(=C/c1ccc(N2CCCCCC2)o1)c1ccc(Cl)cc1; 4.77 µM (active)
CCN1C(=O)c2cccc3cccc1c23; 20.5 µM (active)
CCCc1ccc(/C=C2\C(=O)c3ccccc3C(O)=C2C(=O)OCC)cc1; 9.62 µM (active)
O=C(CN1C(=O)/C(=C2\SC(=S)N(CCS(=O)(=O)O)C2=O)c2ccccc21)Nc1cccc(Br)c1; 9.59 µM (active)
CC(=O)Nc1ccc(C2=NN=C(Nc3ccc(S(=O)(=O)N4CCOCC4)cc3)SC2)cc1; 13.8 µM (active)

* * *

# measurementNotes: viability of uninfected HEp-2 cells – cell-based, HTS, cytotoxicity control for RSV inhibitor project, dose response (AID 2410)
# Format: functional
# particulars: human respiratory syncytial virus
Activity calls are given as the source filed them.
experimentalEndpoint: CC50

O=C(NC(=S)Nc1ccc(N2CCCCC2)c(Cl)c1)c1cccs1; 17.3 µM (active)
Clc1ccc2c(c1)c1cc(Cl)ccc1n2CN1CCOCC1; 17.9 µM (active)
CN(c1ccccc1)S(=O)(=O)c1cccc(NC(=O)CN2CCc3ccccc3C2)c1; 22.4 µM (active)
CCOC(=O)C1CCCN(c2nc3ccccc3nc2C(C#N)C(=O)OCC)C1 (centres undefined); 33.7 µM (active)

* * *

# studySystem: Protein Tat (Human immunodeficiency virus type 1 group M subtype B (isolate HXB2)(HIV-1));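 further: tat binding to TAR RNA read out by fluorescence polarization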
# Sequence (P04608 whole entry): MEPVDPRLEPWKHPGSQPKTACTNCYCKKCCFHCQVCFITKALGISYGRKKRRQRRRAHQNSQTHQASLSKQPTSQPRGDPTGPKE
# Assay type: functional
Activity calls are given as the source filed them.
# IC50 per record follows
experimentalEndpoint: IC50

CC(=O)/N=C1\C(=O)N(C)c2cccc3c(O)c4ccccc4c1c23; > 100 µM (active)
CC/N=c1\scc(C)n1/N=C/c1ccc(O)c(O)c1O; 54.4 µM (inconclusive)
CCn1c(SCC(=O)NCc2ccco2)nnc1-c1cccs1; > 100 µM (active)
Cc1ccc(N2CCN(c3ccc(C)cc3)C2c2ccccn2)cc1; > 100 µM (active)

* * *

# measurementNotes: NIH-3T3 fibroblast cytotoxicity, dose response, cytotoxicity control, cell-based, fluorescence, Alamar Blue, secondary assay (AID 2327);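 further: NIH-3T3 mouse fibroblasts cultured with fluconazole at 8 µg/mL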
# Type: functional
The source made the active and inactive calls.
Measured EC50 accompanies every entry in the list below.
experimentalEndpoint: EC50

CC/N=c1\scc(C)n1/N=C/c1ccc(O)c(O)c1O; > 150 µM (inactive)
O=C(Nc1cc(F)cc(F)c1)c1ccc(NCCCN2CCCCCC2)c([N+](=O)[O-])c1; 105 µM (active)
CC(C)Cc1nc2oc3c(O)ncnc3c2c2c1CCCC2; > 160 µM (inactive)
CCc1ccc(C2c3[nH]c4ccccc4c3CCN2C(=O)c2ccc(=O)n(C)n2)cc1 (centres undefined); > 160 µM (inconclusive)
